These entries and their values trace back to patent US20240207302A1.

# assay-text: Maximum tolerated dose (OECD 425) and tolerability
# Format: in vivo
# test-parameters: both sexes, mouse, in vivo; mice; oral, MTD study
observable: NOAEL at 7 days (mg/kg)

- c1coc(CNc2ncnc3[nH]cnc23)c1: 550

----------
# assay-text: Toxicokinetics in the 28-day study
# Type: in vivo, mice
# test-parameters: male, CD1, mouse, in vivo, po, 10 mg/kg, male mice; 10 mg/kg; Day 0
observable: Cmax (ng/mL)

- c1coc(CNc2ncnc3[nH]cnc23)c1: 99

----------
# assay-text: Toxicokinetics in the 28-day study
# Format: in vivo, mice
# test-parameters: male, CD1, mouse, in vivo, po, 10 mg/kg, male mice; 10 mg/kg; Day 28
observable: AUC (ng·h/mL)

- c1coc(CNc2ncnc3[nH]cnc23)c1 [MB-905, kinetin]: 121
